Measured values drawn from paper PMC7774954 for this set.

# EXPERIMENTAL_TARGET: T1, MAST2-1 (human)
# T1 chain: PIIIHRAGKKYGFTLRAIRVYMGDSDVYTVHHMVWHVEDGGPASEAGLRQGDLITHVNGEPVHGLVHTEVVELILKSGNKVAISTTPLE
# ASSAY_COMMENT: FP
Where no end group is shown, it is not given here.
ATTRIBUTE_MEASURED: Kd (µM)
Kindly provide the numeric value in µM only, without the unit symbol.

Task: Kd lookup needed for Fluorescein-KLPSTTL [fRSK1] , thanks.
Result: 6.87
